method_description: self-splicing fitness, log relative to wild type (ln ratio); higher = more splicing; Tetrahymena group I intron in knt gene, E. coli kanamycin selection, DiMSum; sequences stand for … in CUCUCU…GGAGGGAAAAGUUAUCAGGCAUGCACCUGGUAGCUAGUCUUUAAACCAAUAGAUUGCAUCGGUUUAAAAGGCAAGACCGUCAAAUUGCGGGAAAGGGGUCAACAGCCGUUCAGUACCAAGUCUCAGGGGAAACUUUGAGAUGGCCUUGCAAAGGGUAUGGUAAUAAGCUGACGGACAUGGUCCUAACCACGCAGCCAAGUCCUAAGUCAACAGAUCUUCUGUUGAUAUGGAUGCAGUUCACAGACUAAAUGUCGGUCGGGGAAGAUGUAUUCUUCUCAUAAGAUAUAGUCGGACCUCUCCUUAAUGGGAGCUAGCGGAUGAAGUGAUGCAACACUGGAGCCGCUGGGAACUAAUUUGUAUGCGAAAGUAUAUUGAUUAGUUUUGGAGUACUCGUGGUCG;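 further: selection with 25 µg/mL kanamycin versus none on LB agar overnight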
settings: 30 °C
Recorded self-splicing fitness (ln) split into classes zone 1 = under -3, zone 2 = from -3 up to -2, zone 3 = -2 and over

[[record]]
chain_sequence = "UAUCAGCAAUAUUACGUUUC"
assigned_label = "zone 2"

[[record]]
chain_sequence = "GAGGAGCAAUAUUACGCCUG"
assigned_label = "zone 2"

[[record]]
chain_sequence = "GAAGAGCAAUAUUACGAGAG"
assigned_label = "zone 2"

[[record]]
chain_sequence = "CCAGAGCAAUAUUACGCUAG"
assigned_label = "zone 1"

[[record]]
chain_sequence = "UCAGAGCAAUAUUACGGAGA"
assigned_label = "zone 2"

[[record]]
chain_sequence = "CUGGAGCAAUAUUACGAACA"
assigned_label = "zone 2"

[[record]]
chain_sequence = "CAAGAGCAAUAUUACGUGAU"
assigned_label = "zone 1"

[[record]]
chain_sequence = "CCGGAGCAAUAUUACGACGA"
assigned_label = "zone 3"


Pick a category. Item: `UGCGAGCAAUAUUACGGACG` zone 3

Next record, please: `AUAGAGCAAUAUUACGUUAU` zone 3

* * *

method_description: self-splicing fitness, log relative to wild type (ln ratio); higher = more splicing; Tetrahymena group I intron in knt gene, E. coli kanamycin selection, DiMSum; sequences stand for … in CUCUCU…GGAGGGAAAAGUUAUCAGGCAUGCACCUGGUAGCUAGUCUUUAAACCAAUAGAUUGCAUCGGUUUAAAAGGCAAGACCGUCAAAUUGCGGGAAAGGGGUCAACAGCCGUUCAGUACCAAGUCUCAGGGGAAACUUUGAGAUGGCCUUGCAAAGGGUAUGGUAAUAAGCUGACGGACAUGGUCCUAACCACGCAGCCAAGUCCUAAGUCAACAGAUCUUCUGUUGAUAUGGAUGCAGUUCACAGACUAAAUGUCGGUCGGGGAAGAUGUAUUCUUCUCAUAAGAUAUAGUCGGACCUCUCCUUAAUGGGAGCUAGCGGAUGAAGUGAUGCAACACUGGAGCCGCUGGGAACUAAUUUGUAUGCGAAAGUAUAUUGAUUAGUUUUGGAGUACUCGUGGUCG
settings: 37 °C
quantity_kind: self-splicing fitness (ln)

Consider the following illustrative entries.
[[record]]
chain_sequence = "UUCAAGCAAUAUUACGAGCU"
recorded_value = -1.33

[[record]]
chain_sequence = "CGAUAGCAAUAUUACGGGGA"
recorded_value = -2.27

[[record]]
chain_sequence = "GCGAAGCAAUAUUACGCUCG"
recorded_value = -2.12

[[record]]
chain_sequence = "CCAUAGCAAUAUUACGAUAU"
recorded_value = -2.97


Any idea what self-splicing fitness (ln) was measured for `GGGUAGCAAUAUUACGUGGU` ? -2.04

Next record, please: `UCAGAGCAAUAUUACGACGA` -0.26

Next record, please: `AGAGAGCAAUAUUACGUCUG` -2.38

Next record, please: `UCACAGCAAUAUUACGCUCG` 0.16
